test system: ATP; assay: switch fluorescence ratio, 500 uM ATP over buffer (Cy3 cluster intensity, sum of 5 cycles each) (fold (ratio)); higher = stronger signal-on switching upon ATP binding; sequences stand for … in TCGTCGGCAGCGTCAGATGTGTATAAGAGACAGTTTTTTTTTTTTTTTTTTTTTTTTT…TC; settings: aptamer strand: ATP DNA aptamer (quencher-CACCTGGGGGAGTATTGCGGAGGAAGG + anchor), 100 nM annealed; ATP concentration: 500 uM;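 also: ATP exposure 15 min at 22 °C before imaging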
Think of 1 as a floor: if switch fluorescence ratio stands on it or above, it is True; beneath it, False.

Here are 4 sequences together with their reported answers.
Task item: Is reported switch fluorescence ratio greater than or equal to 1 here: ATGTTTTGCT
Reply: False

Task item: // query: GGGGGATAGA
Reply: True

Task item: // query: GCGTTTCGGG
Reply: False

Task item: // query: GGGCCAACGA
Reply: True

More entries:
Task item: Is reported switch fluorescence ratio greater than or equal to 1 here: ACATAGAACG
Reply: True

Task item: // query: TTAAAACGGG
Reply: False

Task item: // query: CAAGACCACT
Reply: True

Task item: // query: ACGATCTCCA
Reply: True

Task item: // query: TTATTTAGGC
Reply: True

Task item: // query: GGGCAGCTCT
Reply: False

Task item: // query: CAGCAGGGGT
Reply: True

Task item: // query: GCCTCTGGTG
Reply: True

Task item: // query: GCTAGGGTAG
Reply: True
